Assay: S16 Schwann cell PMP22 intronic element beta-lactamase assay (AID 624044); note: nearly all actives have a fitted effect of over 15% in size
Conditions: S16 rat Schwann cells, PMP22 element beta-lactamase FRET, 24 h; series mostly up to 38.3 µM
Inconclusive results are not listed. The source made the active and inactive calls. Calls come from the whole dose curve.
Outcome codes: 1.0 = active, 0.0 = inactive

| molecule | label.value |
| --- | --- |
| COCC(=O)O[C@]1(CCN(C)CCCc2nc3ccccc3[nH]2)CCc2cc(F)ccc2[C@@H]1C(C)C | 1.0 |
| Cc1nc2sccn2c(=O)c1CCN1CCC(=C(c2ccc(F)cc2)c2ccc(F)cc2)CC1 | 0.0 |
| O=C(CCNNC(=O)c1ccncc1)NCc1ccccc1 | 0.0 |
| OCCN1CCN(CC/C=C2/c3ccccc3Sc3ccc(C(F)(F)F)cc32)CC1 | 0.0 |
| NC(N)=NC(=O)Cc1c(Cl)cccc1Cl | 0.0 |
| C#CCN(C)CCCOc1ccc(Cl)cc1Cl | 0.0 |
| CN(C)C/C=C(/c1ccc(Br)cc1)c1cccnc1 | 0.0 |
| CCOC(=O)C1=C(C)NC(C)=C(C(=O)OC)C1c1cccc(Cl)c1Cl (stereo not given) | 0.0 |
| COCCOC(=O)C1=C(C)NC(C)=C(C(=O)OC(C)C)C1c1cccc([N+](=O)[O-])c1 (stereo not given) | 0.0 |
| NS(=O)(=O)c1cc2c(cc1Cl)NC(C1CC3C=CC1C3)NS2(=O)=O (stereo not given) | 0.0 |
| COC(=O)C1=C(C)NC(C)=C(C(=O)OC(C)(C)CN(C)CCC(c2ccccc2)c2ccccc2)C1c1cccc([N+](=O)[O-])c1 (stereo not given) | 0.0 |
| Cc1ccc(S(=O)(=O)NC(=O)NN2CCCCCC2)cc1 | 0.0 |
| CCCCNC(=O)NS(=O)(=O)c1ccc(C)cc1 | 0.0 |
| CC(=O)[C@]1(O)Cc2c(O)c3c(c(O)c2[C@@H](O[C@H]2C[C@H](N)[C@H](O)[C@H](C)O2)C1)C(=O)c1ccccc1C3=O | 1.0 |
| COC(=O)[C@@H](N)Cc1ccc(O)c(O)c1 | 0.0 |
| CCCN1C[C@H](CSC)C[C@@H]2c3cccc4[nH]cc(c34)C[C@H]21 | 0.0 |
| COC(=O)[C@H]1[C@H]2C[C@@H]3c4[nH]c5cc(OC)ccc5c4CCN3C[C@H]2C[C@@H](OC(=O)c2cc(OC)c(OC)c(OC)c2)[C@@H]1OC | 0.0 |
| c1cc(CN2CCCCC2)cc(OCCCNc2nc3ccccc3s2)c1 | 0.0 |
| CCCC(C(=O)OCCN(CC)CC)(c1ccccc1)c1ccccc1 | 0.0 |
| COC(=O)C1=C(C)NC(C)=C(C(=O)OCCN(C)Cc2ccccc2)C1c1cccc([N+](=O)[O-])c1 (stereo not given) | 0.0 |

====

Tested on: UISO
Assay: qHTS assay to identify novel small-molecules to repurpose for Merkel cell carcinoma treatment (AID 1296009); note: nearly all actives have a fitted effect of over 60% in size
Settings: MCC and control cell lines, CellTiter-Glo viability, 72 h; series mostly up to 46 µM
Records with an inconclusive call do not appear. Activity calls are given as the source filed them. Calls follow the shape of the dose curve; as a rule, active = well fitted inhibition curve with a large enough effect; inconclusive = small, poorly fitted or top-dose-only effect; inactive = flat fitted curve, though single readings scatter.
Classes used: active, inactive

| compound | tested.on | label.value |
| --- | --- | --- |
| OCCN1CCN(CCCN2c3ccccc3C=Cc3ccccc32)CC1 | UISO | inactive |
| CCCCNc1ccc(C(=O)OCCN(C)C)cc1 | UISO | inactive |
| Cc1ccc(=O)n(-c2ccccc2)c1 | UISO | inactive |
| CCn1cc(C(=O)O)c(=O)c2cc3c(cc21)OCO3 | UISO | inactive |
| CN/C(=C\[N+](=O)[O-])NCCSCc1ccc(CN(C)C)o1 | UISO | inactive |
| CCCNC(C)C(=O)Nc1ccccc1C (configuration not stated) | UISO | inactive |
| CCn1nc(C(=O)O)c(=O)c2cc3c(cc21)OCO3 | UISO | inactive |
| CCN(CC)CCNC(=O)c1ccc(NC(C)=O)cc1 | UISO | inactive |
| CCOC(=O)C1=C(C)NC(C)=C(C(=O)OC)C1c1cccc([N+](=O)[O-])c1 (configuration not stated) | UISO | inactive |
| CCN(CC)CCOCCOC(=O)C1(c2ccccc2)CCCC1 | UISO | inactive |
| CNCCC(Oc1ccccc1OC)c1ccccc1 (configuration not stated) | UISO | inactive |
| Cc1nnc(SCC2=C(C(=O)O)N3C(=O)[C@@H](NC(=O)Cn4cnnn4)[C@H]3SC2)s1 | UISO | inactive |
| CCN(Cc1ccncc1)C(=O)C(CO)c1ccccc1 (configuration not stated) | UISO | inactive |
| NC(N)=N/N=C/c1c(Cl)cccc1Cl | UISO | inactive |
| Cc1nc2ccccn2c(=O)c1CCN1CCC(C(=O)c2ccc(F)cc2)CC1 | UISO | inactive |
| Nc1ncn([C@@H]2O[C@H](CO)[C@@H](O)[C@H]2O)c(=O)n1 | UISO | active |
| Cc1ccc(S(=O)(=O)NC(=O)NN2CCCCCC2)cc1 | UISO | inactive |
| CNC1(C)C2CCC(C2)C1(C)C (configuration not stated) | UISO | inactive |
| CN(C(=O)CCCOc1ccc2[nH]c(=O)ccc2c1)C1CCCCC1 | UISO | inactive |
| CCOC(=O)c1cnc2c(cnn2CC)c1NN=C(C)C | UISO | inactive |
| CN(C)C/C=C(/c1ccc(Br)cc1)c1cccnc1 | UISO | inactive |
| C[C@]12C=CC(=O)C=C1CC[C@H]1[C@@H]3C[C@@H](O)[C@](O)(C(=O)CO)[C@@]3(C)C[C@H](O)[C@@]12F | UISO | inactive |
| CN1C[C@H](C(=O)N[C@]2(C)O[C@@]3(O)[C@@H]4CCCN4C(=O)[C@H](Cc4ccccc4)N3C2=O)C[C@@H]2c3cccc4[nH]cc(c34)C[C@H]21 | UISO | inactive |
| CCCCCN(CCCCC)C(=O)C(CCC(=O)O)NC(=O)c1ccc(Cl)c(Cl)c1 (configuration not stated) | UISO | inactive |
| COC(=O)[C@@H](N)Cc1ccc(O)c(O)c1 | UISO | inactive |
| Cc1ccc(Cl)c(Nc2ccccc2C(=O)O)c1Cl | UISO | inactive |
| CCN1CCC[C@H]1CNC(=O)c1c(O)c(Cl)cc(Cl)c1OC | UISO | inactive |
| O=C(CCCN1CCC(O)(c2cccc(C(F)(F)F)c2)CC1)c1ccc(F)cc1 | UISO | inactive |
| CC(=O)[C@]1(O)Cc2c(O)c3c(c(O)c2[C@@H](O[C@H]2C[C@H](N)[C@H](O)[C@H](C)O2)C1)C(=O)c1ccccc1C3=O | UISO | active |
| CCCN(CCC)C(=O)C(CCC(=O)O)NC(=O)c1ccccc1 (configuration not stated) | UISO | inactive |
| CN(C)C(=O)Oc1ccc[n+](C)c1 | UISO | inactive |
| CCN(CC)CCNC(=O)c1cc(S(C)(=O)=O)ccc1OC | UISO | inactive |
| C(=C\c1ccccc1)/CN1CCN(C(c2ccccc2)c2ccccc2)CC1 | UISO | inactive |
| O=C(O)CN(CCN(CC(=O)O)CC(=O)O)CCN(CC(=O)O)CC(=O)O | UISO | inactive |
| O=C(CCNNC(=O)c1ccncc1)NCc1ccccc1 | UISO | inactive |
| CCc1cccc(N(C)C(N)=Nc2cccc3ccccc23)c1 | UISO | inactive |
| CN1CCN(C2=Nc3ccccc3Oc3ccc(Cl)cc32)CC1 | UISO | inactive |
| CN(C)C(=O)Oc1cccc([N+](C)(C)C)c1 | UISO | inactive |
| O=C(O)CP(=O)(O)O | UISO | inactive |
| C[n+]1cc2c3c(ccc2c2ccc4cc5c(cc4c21)OCO5)OCO3 | UISO | active |
| O=C1CC2(CCCC2)CC(=O)N1CCCCN1CCN(c2ncccn2)CC1 | UISO | inactive |
| CCCCNC(=O)NS(=O)(=O)c1ccc(C)cc1 | UISO | inactive |
| NC/C=C/C(=O)O | UISO | inactive |
| NC1=NCC2c3ccccc3Cc3ccccc3N12 (configuration not stated) | UISO | inactive |
| C=CCc1ccccc1OCC(O)CNC(C)C (configuration not stated) | UISO | inactive |
| COCCc1ccc(OCC(O)CNC(C)C)cc1 (configuration not stated) | UISO | inactive |
| CC(=O)Oc1cc(C(C)C)c(OCCN(C)C)cc1C | UISO | inactive |

====

Test system: CP305
Test: qHTS profiling for inhibitors of Plasmodium falciparum proliferation (AID 504749); note: nearly all actives have a fitted effect of over 60% in size
Conditions: P. falciparum in erythrocytes, SYBR Green DNA, 72 h; series mostly up to 28.7 µM
Results filed as inconclusive are left out. The source made the active and inactive calls. The call rests on the fitted dose curve; in most records, active means well fitted inhibition curve with a large enough effect; inconclusive means small, poorly fitted or top-dose-only effect; inactive means flat fitted curve, though single readings scatter.
Labels: active, inactive

| molecule | label.value |
| --- | --- |
| Cc1cc(C)c(/C=C2\C(=O)Nc3ccccc32)[nH]1 | inactive |
| CCCCNc1c(C(=O)OCC)c(C)nc2c1cnn2CC | inactive |
| NC(Cc1ccc(Cl)cc1)C(=O)O (stereo unspecified) | inactive |
| CCCCCCCC/C=C\CCCCCCCC(=O)NCc1ccc(O)c(OC)c1 | inactive |
| C[C@]12CCC(=O)C=C1CC[C@@H]1[C@@H]2CC[C@@]2(C)[C@H]1CC[C@]2(O)C(=O)CO | inactive |
| O=C1NCN(c2ccccc2)C12CCN(CCCC(c1ccc(F)cc1)c1ccc(F)cc1)CC2 | active |
| OC(CCN1CCCCC1)(c1ccccc1)C1CCCCC1 (stereo unspecified) | inactive |
| O=C1CC2(CCCC2)CC(=O)N1CCCCN1CCN(c2ncccn2)CC1 | inactive |
| Cc1nc2ccccn2c(=O)c1CCN1CCC(C(=O)c2ccc(F)cc2)CC1 | inactive |
| CC(=O)Nc1nnc(S(N)(=O)=O)s1 | inactive |
| Cc1scc2c1N(C(=O)CN1CCN(C)CC1)c1ccccc1NC2=O | inactive |
